# target-desc: ABCG2 (Homo sapiens)
# assay: Inhibition of ABCG2-mediated mitoxantrone efflux in HEK293 cells at 1 uM by flow cytometry relative to 5 uM of GF120918
# Format: cell-based
# measurement-conditions: HEK293 cells with ABCG2-mediated efflux, probe mitoxantrone
Mark n for inhibition at 1 µM values under 20%, and y for everything at or above.

molecule-smiles | target-desc | label-class
COc1ccc(CCNC(=O)c2cc(=O)c3c(O)cccc3o2)cc1OC | ABCG2 (Homo sapiens) | y
COc1ccc(CCOc2cccc3oc(C(=O)O)cc(=O)c23)cc1OC | ABCG2 (Homo sapiens) | n
O=C(c1cc(=O)c2c(OCc3ccccc3)cccc2o1)N1CCN(c2ccccc2)CC1 | ABCG2 (Homo sapiens) | y
O=C(c1cc(=O)c2c(O)cccc2o1)N1CCN(c2ccccc2)CC1 | ABCG2 (Homo sapiens) | n
O=C(O)c1cc(=O)c2c(O)cccc2o1 | ABCG2 (Homo sapiens) | n
O=C(c1cc(=O)c2c(OCc3ccccc3)cccc2o1)N1CCN(c2ccccn2)CC1 | ABCG2 (Homo sapiens) | n

Now take the following molecule into account.
Please check the record "O=C(c1cc(=O)c2c(OCc3ccccc3)cccc2o1)N1CCN(Cc2ccccc2)CC1" and state if its inhibition at 1 µM is at or above 20%. n

---

# target-desc: Broad substrate specificity ATP-binding cassette transporter ABCG2 (Homo sapiens)
# assay: Inhibition of ABCG2-mediated mitoxantrone efflux in HEK293 cells by flow cytometry
# key: entry, value: IC50
Reply with just the number (in nM).

Using the record for "COc1ccc2[nH]cc(CCNC(=O)c3cc(=O)c4c(OCCc5ccccc5)cccc4o3)c2c1" , report its IC50. 160

---

# target-desc: MRP1 (ABCC1) (Homo sapiens, UniProt P33527)
# Sequence (P33527 whole entry): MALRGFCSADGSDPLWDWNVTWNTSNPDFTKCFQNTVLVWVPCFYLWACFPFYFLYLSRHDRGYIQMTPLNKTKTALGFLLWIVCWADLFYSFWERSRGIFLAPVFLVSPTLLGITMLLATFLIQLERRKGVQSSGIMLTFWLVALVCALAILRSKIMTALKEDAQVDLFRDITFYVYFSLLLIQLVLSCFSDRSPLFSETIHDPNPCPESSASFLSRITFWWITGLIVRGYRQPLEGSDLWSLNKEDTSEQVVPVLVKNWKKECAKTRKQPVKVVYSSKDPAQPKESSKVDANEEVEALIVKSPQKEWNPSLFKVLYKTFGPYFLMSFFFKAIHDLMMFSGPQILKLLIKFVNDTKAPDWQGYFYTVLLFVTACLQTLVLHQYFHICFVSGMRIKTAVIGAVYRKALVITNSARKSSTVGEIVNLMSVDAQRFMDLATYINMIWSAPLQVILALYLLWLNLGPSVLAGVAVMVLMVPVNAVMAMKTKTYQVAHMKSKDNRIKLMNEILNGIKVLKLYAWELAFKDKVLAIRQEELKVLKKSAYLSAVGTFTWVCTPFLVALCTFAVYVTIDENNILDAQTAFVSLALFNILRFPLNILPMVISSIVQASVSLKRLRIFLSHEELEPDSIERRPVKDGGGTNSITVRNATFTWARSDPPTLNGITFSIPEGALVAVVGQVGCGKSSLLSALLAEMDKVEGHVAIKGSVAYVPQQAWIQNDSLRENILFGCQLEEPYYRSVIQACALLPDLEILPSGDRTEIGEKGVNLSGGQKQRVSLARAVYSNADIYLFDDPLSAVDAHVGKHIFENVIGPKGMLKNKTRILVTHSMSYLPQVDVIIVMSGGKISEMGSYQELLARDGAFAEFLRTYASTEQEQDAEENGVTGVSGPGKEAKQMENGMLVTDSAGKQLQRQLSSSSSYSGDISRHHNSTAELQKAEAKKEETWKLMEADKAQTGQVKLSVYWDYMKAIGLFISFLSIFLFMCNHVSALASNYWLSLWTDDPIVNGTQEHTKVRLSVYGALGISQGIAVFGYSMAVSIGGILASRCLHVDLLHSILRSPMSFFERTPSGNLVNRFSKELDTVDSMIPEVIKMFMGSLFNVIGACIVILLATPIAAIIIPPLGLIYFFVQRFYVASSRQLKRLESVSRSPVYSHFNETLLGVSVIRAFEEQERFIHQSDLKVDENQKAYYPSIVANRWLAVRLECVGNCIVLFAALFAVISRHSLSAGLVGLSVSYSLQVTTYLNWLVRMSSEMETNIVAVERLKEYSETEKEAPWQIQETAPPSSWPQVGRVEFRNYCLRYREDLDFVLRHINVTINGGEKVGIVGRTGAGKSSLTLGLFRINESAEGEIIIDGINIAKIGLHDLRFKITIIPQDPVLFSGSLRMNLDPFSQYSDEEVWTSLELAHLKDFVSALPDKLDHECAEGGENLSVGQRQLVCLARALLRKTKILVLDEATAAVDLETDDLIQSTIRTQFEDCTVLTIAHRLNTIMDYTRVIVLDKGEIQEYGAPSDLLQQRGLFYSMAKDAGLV
# assay: Inhibition of MRP1/ABCC1-mediated calcein efflux in HEK293 cells at 1 uM by flow cytometry relative to untreated control
# Assay type: cell-based
# measurement-conditions: HEK293 cells with MRP1/ABCC1-mediated efflux, probe calcein
readout-type: inhibition at 1 µM (%)
Reply with just the number (in %).

Below, each entry is followed by its recorded inhibition at 1 µM result.
molecule-smiles | inhibition at 1 µM (%)
COc1ccc2[nH]cc(CCNC(=O)c3cc(=O)c4c(OCc5ccccc5)cccc4o3)c2c1 | 1.91
COc1ccc(CCNC(=O)c2cc(=O)c3c(O)cccc3o2)cc1OC | 3.37
COc1ccc(CCNC(=O)c2cc(=O)c3c(OCCc4ccc(OC)c(OC)c4)cccc3o2)cc1OC | 5.57

Using the record for "COc1ccc2[nH]cc(CCNC(=O)c3cc(=O)c4c(OCc5ccc(C)cc5)cccc4o3)c2c1" , report its inhibition at 1 µM. 1.13

Using the record for "COc1ccc2[nH]cc(CCNC(=O)c3cc(=O)c4c(OCc5ccc(Br)cc5)cccc4o3)c2c1" , report its inhibition at 1 µM. 2.58

Using the record for "COc1ccc2[nH]cc(CCNC(=O)c3cc(=O)c4c(OCCc5ccccc5)cccc4o3)c2c1" , report its inhibition at 1 µM. 2.36

Using the record for "COc1ccc(CCNC(=O)c2cc(=O)c3c(OCc4ccccc4)cccc3o2)cc1OC" , report its inhibition at 1 µM. 10.8

---

# target-desc: ABCG2 (Homo sapiens)
# Sequence (Q9UNQ0 whole entry): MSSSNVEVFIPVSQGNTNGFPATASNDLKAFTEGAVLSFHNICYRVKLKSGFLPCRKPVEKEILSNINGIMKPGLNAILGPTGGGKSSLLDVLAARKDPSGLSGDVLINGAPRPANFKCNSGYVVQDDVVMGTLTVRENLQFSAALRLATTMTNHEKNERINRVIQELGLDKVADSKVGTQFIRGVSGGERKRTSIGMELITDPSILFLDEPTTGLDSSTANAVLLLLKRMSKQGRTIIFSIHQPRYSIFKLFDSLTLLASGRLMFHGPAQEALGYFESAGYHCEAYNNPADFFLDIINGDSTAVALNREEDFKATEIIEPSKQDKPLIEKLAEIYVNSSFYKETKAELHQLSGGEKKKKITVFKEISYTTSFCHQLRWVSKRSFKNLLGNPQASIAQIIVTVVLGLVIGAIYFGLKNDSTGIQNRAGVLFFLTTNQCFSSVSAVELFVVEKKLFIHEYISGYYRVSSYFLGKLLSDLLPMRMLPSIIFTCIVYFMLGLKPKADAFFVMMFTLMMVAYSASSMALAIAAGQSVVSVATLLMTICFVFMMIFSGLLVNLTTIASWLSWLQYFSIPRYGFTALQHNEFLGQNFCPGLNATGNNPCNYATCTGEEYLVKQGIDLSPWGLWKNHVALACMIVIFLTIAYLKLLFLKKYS
# assay: Inhibition of ABCG2-mediated mitoxantrone efflux in HEK293 cells at 5 uM by flow cytometry relative to 5 uM of GF120918
# Type: cell-based
# measurement-conditions: HEK293 cells with ABCG2-mediated efflux, probe mitoxantrone
Mark no (0) for inhibition at 5 µM values under 50%, and yes (1) for everything at or above.

molecule-smiles | label-class
O=C(O)c1cc(=O)c2c(O)cccc2o1 | no (0)
O=C(c1cc(=O)c2c(OCc3ccccc3)cccc2o1)N1CCN(Cc2ccccc2)CC1 | no (0)
O=C(c1cc(=O)c2c(O)cccc2o1)N1CCN(c2ccccc2)CC1 | no (0)
COc1ccc(CCOc2cccc3oc(C(=O)O)cc(=O)c23)cc1OC | no (0)
O=C(c1cc(=O)c2c(OCc3ccccc3)cccc2o1)N1CCN(c2ccccn2)CC1 | no (0)

Please check the record "O=C(c1cc(=O)c2c(OCc3ccccc3)cccc2o1)N1CCN(c2ccccc2)CC1" and state if its inhibition at 5 µM is at or above 50%. yes (1)

Please check the record "COc1ccc(CCNC(=O)c2cc(=O)c3c(O)cccc3o2)cc1OC" and state if its inhibition at 5 µM is at or above 50%. yes (1)

---

# target-desc: P-glycoprotein (ABCB1) (Homo sapiens)
# Sequence (P08183 whole entry): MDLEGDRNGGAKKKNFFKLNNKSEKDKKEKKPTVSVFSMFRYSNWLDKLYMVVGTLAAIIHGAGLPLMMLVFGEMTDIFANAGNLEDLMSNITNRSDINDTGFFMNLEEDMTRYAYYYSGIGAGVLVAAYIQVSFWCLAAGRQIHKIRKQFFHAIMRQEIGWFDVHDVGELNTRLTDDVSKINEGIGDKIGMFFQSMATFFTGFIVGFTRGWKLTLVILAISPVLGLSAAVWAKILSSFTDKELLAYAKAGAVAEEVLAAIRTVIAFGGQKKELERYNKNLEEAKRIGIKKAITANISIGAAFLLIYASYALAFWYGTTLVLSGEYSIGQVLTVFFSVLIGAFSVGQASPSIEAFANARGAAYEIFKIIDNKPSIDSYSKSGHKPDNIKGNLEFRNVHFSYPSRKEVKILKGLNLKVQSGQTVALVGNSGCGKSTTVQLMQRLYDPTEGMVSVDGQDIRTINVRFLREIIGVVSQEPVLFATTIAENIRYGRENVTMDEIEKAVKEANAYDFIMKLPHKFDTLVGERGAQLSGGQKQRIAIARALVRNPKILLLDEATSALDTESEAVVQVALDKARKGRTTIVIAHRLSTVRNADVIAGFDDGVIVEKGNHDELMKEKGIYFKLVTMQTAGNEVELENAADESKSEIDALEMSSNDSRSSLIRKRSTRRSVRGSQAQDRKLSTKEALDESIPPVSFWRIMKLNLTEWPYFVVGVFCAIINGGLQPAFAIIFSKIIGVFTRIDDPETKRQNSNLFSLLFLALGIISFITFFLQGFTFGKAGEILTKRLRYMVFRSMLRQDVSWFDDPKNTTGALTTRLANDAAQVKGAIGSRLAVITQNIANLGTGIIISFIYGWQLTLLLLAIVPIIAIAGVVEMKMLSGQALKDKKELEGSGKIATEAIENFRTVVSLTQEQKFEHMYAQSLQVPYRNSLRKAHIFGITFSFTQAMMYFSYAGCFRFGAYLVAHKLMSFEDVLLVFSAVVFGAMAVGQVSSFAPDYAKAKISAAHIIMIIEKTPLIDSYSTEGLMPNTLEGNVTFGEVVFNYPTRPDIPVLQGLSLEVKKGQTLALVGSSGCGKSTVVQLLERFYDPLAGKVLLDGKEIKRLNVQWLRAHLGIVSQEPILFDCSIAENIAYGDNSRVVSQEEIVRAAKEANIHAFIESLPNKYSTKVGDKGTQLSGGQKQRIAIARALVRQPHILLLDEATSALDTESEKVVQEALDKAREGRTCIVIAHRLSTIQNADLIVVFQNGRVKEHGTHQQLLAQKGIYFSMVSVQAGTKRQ
# assay: Inhibition of P-glycoprotein/ABCB1-mediated mitoxantrone efflux in HEK293 cells at 5 uM by flow cytometry relative to 5 uM of GF120918
# Format: cell-based
# measurement-conditions: HEK293 cells with P-glycoprotein/ABCB1-mediated efflux, probe mitoxantrone
readout-type: inhibition at 5 µM

Below, each entry is followed by its recorded inhibition at 5 µM result.
molecule-smiles | inhibition at 5 µM
COc1ccc2[nH]cc(CCNC(=O)c3cc(=O)c4c(OCc5ccc(Br)cc5)cccc4o3)c2c1 | -16.1%
COc1ccc2[nH]cc(CCNC(=O)c3cc(=O)c4c(OCc5ccc(C)cc5)cccc4o3)c2c1 | -21.9%
COc1ccc(CCNC(=O)c2cc(=O)c3c(O)cccc3o2)cc1OC | -29%
COc1ccc(CCNC(=O)c2cc(=O)c3c(OCCc4ccc(OC)c(OC)c4)cccc3o2)cc1OC | -0.11%
COc1ccc2[nH]cc(CCNC(=O)c3cc(=O)c4c(OCCc5ccccc5)cccc4o3)c2c1 | -14.8%
COc1ccc(CCNC(=O)c2cc(=O)c3c(OCc4ccccc4)cccc3o2)cc1OC | -22.9%

Using the record for "COc1ccc2[nH]cc(CCNC(=O)c3cc(=O)c4c(OCc5ccccc5)cccc4o3)c2c1" , report its inhibition at 5 µM. -19.4%

---

# Tested on: ABCG2
# assay: Therapeutic index, ratio of GI50 for human HEK293 cells transfected with ABCG2 to IC50 for ABCG2-mediated mitoxantrone efflux in HEK293 cells
# Type: cell-based
# measurement-conditions: HEK293 cells transfected with ABCG2, probe mitoxantrone
readout-type: selectivity ratio
Please state the value as a number alone, without comment.

molecule-smiles | selectivity ratio
CC(C)=CCc1c(O)cc2oc(-c3ccccc3)cc(=O)c2c1O | 40

Attention now turns to another entry.
Param readout= selectivity ratio; system= ABCG2; entry= "COc1ccc2[nH]cc(CCNC(=O)c3cc(=O)c4c(OCc5ccc(Br)cc5)cccc4o3)c2c1" ; returns value. 2000

---

# System: P-glycoprotein 1 (Homo sapiens)
# assay: Inhibition of P-glycoprotein/ABCB1-mediated mitoxantrone efflux in HEK293 cells at 5 uM by flow cytometry relative to untreated control
# measurement-conditions: HEK293 cells with P-glycoprotein/ABCB1-mediated efflux, probe mitoxantrone
# key: entry, value: inhibition at 5 µM
Reply with just the number (in %).

Below, each entry is followed by its recorded inhibition at 5 µM result.
molecule-smiles | inhibition at 5 µM (%)
COc1ccc(CCNC(=O)c2cc(=O)c3c(OCCc4ccc(OC)c(OC)c4)cccc3o2)cc1OC | 10.8
COc1ccc(CCNC(=O)c2cc(=O)c3c(O)cccc3o2)cc1OC | 5.47
COc1ccc2[nH]cc(CCNC(=O)c3cc(=O)c4c(OCc5ccc(Br)cc5)cccc4o3)c2c1 | 2.86
COc1ccc2[nH]cc(CCNC(=O)c3cc(=O)c4c(OCCc5ccccc5)cccc4o3)c2c1 | 5.12
COc1ccc2[nH]cc(CCNC(=O)c3cc(=O)c4c(OCc5ccccc5)cccc4o3)c2c1 | 5.14

Using the record for "COc1ccc2[nH]cc(CCNC(=O)c3cc(=O)c4c(OCc5ccc(C)cc5)cccc4o3)c2c1" , report its inhibition at 5 µM. 3.09
